- protocol text: Metabolic stability in porcine liver S9 fraction
- Type: in vitro ADME
- condition details: 30 min, 37 °C; no NADPH added
measurement kind: stability porcine liver S9 fractions (percent of parent remaining) (%)

{"columns": ["compound", "unit text", "recorded measurement"],
 "data": [
  ["O=C(NCCCCCn1ccc2ccc(F)cc21)Oc1cccnc1 [Compound 44]", "%", 53],
  ["O=C(NCCCCCn1ccc2ccc(F)cc21)Oc1cccc(C(=O)O)c1 [Compound 35]", "%", 74],
  ["Cc1cncc(OC(=O)NCCCCCn2ccc3ccc(F)cc32)c1 [Compound 47]", "%", 57],
  ["O=C(NCCCCCn1ccc2ccc(F)cc21)Oc1cccc2[nH]ccc12 [Compound 49]", "%", 78],
  ["Cc1ccc(OC(=O)NCCCCCn2ccc3ccc(F)cc32)cn1 [Compound 48]", "%", 51],
  ["Cc1ncccc1OC(=O)NCCCCCn1ccc2ccc(F)cc21 [Compound 45]", "%", 65],
  ["N#Cc1cccc(OC(=O)NCCCCCn2ccc3ccc(F)cc32)c1 [Compound 30]", "%", 49],
  ["O=C(OC(C(F)(F)F)C(F)(F)F)N1CCN(Cc2ccc(C(F)(F)F)cc2N2CCCC2)CC1 [ABX-1431 (2), reference compound]", "%", 81],
  ["O=C(NCCCCCn1ccc2ccc(F)cc21)Oc1ccc(C(=O)O)cc1 [Compound 33]", "%", 59],
  ["O=C(O)Cc1ccccc1OC(=O)NCCCCCn1ccc2ccc(F)cc21 [Compound 43]", "%", 82],
  ["O=C(NCCCCCn1ccc2ccc(F)cc21)Oc1ccc(F)cc1 [Compound 26]", "%", 69],
  ["O=C(O)Cc1ccc(OC(=O)NCCCCCn2ccc3ccc(F)cc32)cc1 [Compound 39]", "%", 85],
  ["NC(=O)c1cccc(-c2cccc(OC(=O)NC3CCCCC3)c2)c1 [URB597 (1), reference compound]", "%", 80],
  ["O=C(NCCCCCn1ccc2ccc(F)cc21)Oc1ccccc1C(=O)O [Compound 37]", "%", 77],
  ["Cc1ccncc1OC(=O)NCCCCCn1ccc2ccc(F)cc21 [Compound 46]", "%", 56],
  ["O=C(O)c1ccc(OC(=O)N2CCC(CCn3ccc4ccc(F)cc43)CC2)cc1 [Compound 54]", "%", 66],
  ["O=C(O)c1ccccc1OC(=O)N1CCC(CCn2ccc3ccc(F)cc32)CC1 [Compound 58]", "%", 72],
  ["CNC(=O)Oc1ccc2c(c1)[C@]1(C)CCN(C)[C@@H]1N2C [physostigmine, reference compound]", "%", 57],
  ["O=C(O)c1cccc(OC(=O)N2CCC(CCn3ccc4ccc(F)cc43)CC2)c1 [Compound 56]", "%", 72]
]}

---

- protocol text: Metabolic stability in rat liver S9 fraction
- Assay type: in vitro ADME
- condition details: 30 min incubation in the presence of NADPH
Measured metabolic stability rat liver S9 fraction (percent of parent remaining), listed per entry.
measurement kind: metabolic stability rat liver S9 fraction (percent of parent remaining) (%)

{"columns": ["molecule", "recorded measurement"],
 "data": [
  ["O=C(NCCCCn1ccc2ccc(F)cc21)Oc1ccccc1 [Compound 11]", 75],
  ["O=C(NCCCCCCCn1ccc2ccc(F)cc21)Oc1ccccc1 [Compound 21]", 74],
  ["O=C(OC(C(F)(F)F)C(F)(F)F)N1CCN(Cc2ccc(C(F)(F)F)cc2N2CCCC2)CC1 [ABX-1431 (2), reference compound]", 92],
  ["O=C(NCCCCCCn1ccc2ccc(F)cc21)Oc1ccccc1 [Compound 17]", 73],
  ["CNC(=O)Oc1ccc2c(c1)[C@]1(C)CCN(C)[C@@H]1N2C [physostigmine, reference compound]", 76],
  ["O=C(NCCCCCn1ccc2ccc(F)cc21)Oc1ccccc1 [Compound 14]", 66],
  ["O=C(NCCCCCCCCn1ccc2ccc(F)cc21)Oc1ccccc1 [Compound 25]", 74]
]}

---

- protocol text: Metabolic stability in porcine blood plasma
- Assay type: in vitro ADME
- condition details: Table 3; 30 min, 37 °C; n = 3 unless otherwise stated
measurement kind: stability porcine blood plasma (percent of parent remaining) (%)

{"columns": ["compound", "limit operator", "recorded measurement"],
 "data": [
  ["O=C(NCCCCCn1ccc2ccc(F)cc21)Oc1cccc2[nH]ccc12", "=", 80],
  ["O=C(O)c1cccc(OC(=O)N2CCC(CCn3ccc4ccc(F)cc43)CC2)c1", ">", 95],
  ["Cc1ccc(OC(=O)NCCCCCn2ccc3ccc(F)cc32)cn1", "<", 5],
  ["O=C(O)Cc1ccc(OC(=O)NCCCCCn2ccc3ccc(F)cc32)cc1", "=", 88],
  ["O=C(O)c1ccccc1OC(=O)N1CCC(CCn2ccc3ccc(F)cc32)CC1", ">", 95],
  ["CNC(=O)Oc1ccc2c(c1)[C@]1(C)CCN(C)[C@@H]1N2C [physostigmine, reference compound]", ">", 95],
  ["Cc1ncccc1OC(=O)NCCCCCn1ccc2ccc(F)cc21", "=", 23],
  ["O=C(O)Cc1ccccc1OC(=O)NCCCCCn1ccc2ccc(F)cc21", "=", 89]
]}

---

List of stability porcine albumin solution (percent of parent remaining) values.
- tested target: porcine albumin (Sus scrofa)
- Sequence (P08835 25-607): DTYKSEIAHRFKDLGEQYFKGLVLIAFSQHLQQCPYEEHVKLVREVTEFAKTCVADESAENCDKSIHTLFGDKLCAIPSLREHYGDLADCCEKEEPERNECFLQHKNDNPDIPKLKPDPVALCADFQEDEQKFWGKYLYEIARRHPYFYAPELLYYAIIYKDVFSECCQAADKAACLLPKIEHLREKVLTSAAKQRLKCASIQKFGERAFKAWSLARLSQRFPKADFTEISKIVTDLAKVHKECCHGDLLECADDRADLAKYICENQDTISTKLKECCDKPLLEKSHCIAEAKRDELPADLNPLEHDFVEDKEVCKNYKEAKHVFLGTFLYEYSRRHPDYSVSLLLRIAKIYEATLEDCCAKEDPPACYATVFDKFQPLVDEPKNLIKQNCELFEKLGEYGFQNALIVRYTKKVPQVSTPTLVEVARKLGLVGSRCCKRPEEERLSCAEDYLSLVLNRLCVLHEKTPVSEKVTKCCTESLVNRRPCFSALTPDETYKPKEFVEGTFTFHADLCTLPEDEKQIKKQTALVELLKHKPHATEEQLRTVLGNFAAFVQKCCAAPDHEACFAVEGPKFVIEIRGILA
- protocol text: Stability in porcine albumin solution
- Format: in vitro ADME
- condition details: porcine albumin 17.5 mg/mL in PBS; 30 min, 37 °C
measurement kind: stability porcine albumin solution (percent of parent remaining) (%)

{"columns": ["compound", "limit operator", "recorded measurement"],
 "data": [
  ["N#Cc1cccc(OC(=O)NCCCCCn2ccc3ccc(F)cc32)c1", "<", 5],
  ["O=C(NCCCCCn1ccc2ccc(F)cc21)Oc1ccccc1C(=O)O", "=", 74],
  ["O=C(NCCCCCn1ccc2ccc(F)cc21)Oc1cccnc1", "=", 27],
  ["NC(=O)c1cccc(-c2cccc(OC(=O)NC3CCCCC3)c2)c1 [URB597 (1), reference compound]", "=", 95],
  ["Cc1ncccc1OC(=O)NCCCCCn1ccc2ccc(F)cc21", "=", 70],
  ["Cc1ccc(OC(=O)NCCCCCn2ccc3ccc(F)cc32)cn1", "=", 62],
  ["O=C(O)Cc1ccc(OC(=O)NCCCCCn2ccc3ccc(F)cc32)cc1", ">", 95],
  ["O=C(O)Cc1ccccc1OC(=O)NCCCCCn1ccc2ccc(F)cc21", "=", 89],
  ["O=C(O)c1ccc(OC(=O)N2CCC(CCn3ccc4ccc(F)cc43)CC2)cc1", "=", 93],
  ["O=C(NCCCCCn1ccc2ccc(F)cc21)Oc1cccc2[nH]ccc12", "=", 81],
  ["O=C(OC(C(F)(F)F)C(F)(F)F)N1CCN(Cc2ccc(C(F)(F)F)cc2N2CCCC2)CC1 [ABX-1431 (2), reference compound]", "=", 87],
  ["O=C(O)c1cccc(OC(=O)N2CCC(CCn3ccc4ccc(F)cc43)CC2)c1", "=", 94],
  ["CNC(=O)Oc1ccc2c(c1)[C@]1(C)CCN(C)[C@@H]1N2C [physostigmine, reference compound]", ">", 95],
  ["O=C(NCCCCCn1ccc2ccc(F)cc21)Oc1cccc(C(=O)O)c1", "=", 93],
  ["O=C(NCCCCCn1ccc2ccc(F)cc21)Oc1ccc(C(=O)O)cc1", "=", 90],
  ["O=C(O)c1ccccc1OC(=O)N1CCC(CCn2ccc3ccc(F)cc32)CC1", "=", 89]
]}

---

- protocol text: Metabolic stability in porcine blood plasma
- Assay type: in vitro ADME
- condition details: Table 3; 30 min, 37 °C; n = 3 unless otherwise stated
measurement kind: stability porcine blood plasma (percent of parent remaining) (%)

{"columns": ["smiles", "limit operator", "recorded measurement"],
 "data": [
  ["Cc1ccncc1OC(=O)NCCCCCn1ccc2ccc(F)cc21", "=", 8],
  ["O=C(NCCCCCn1ccc2ccc(F)cc21)Oc1cccc(C(=O)O)c1", "=", 78],
  ["O=C(NCCCCCn1ccc2ccc(F)cc21)Oc1ccc(C(=O)O)cc1", "=", 37],
  ["Cc1cncc(OC(=O)NCCCCCn2ccc3ccc(F)cc32)c1", "<", 5],
  ["N#Cc1cccc(OC(=O)NCCCCCn2ccc3ccc(F)cc32)c1", "<", 5]
]}

---

# metabolic stability porcine plasma (percent of parent remaining) values compiled below
- protocol text: Metabolic stability in porcine blood plasma
- Assay type: in vitro ADME
- condition details: Table 1; 30 min incubation; n = 3
measurement kind: metabolic stability porcine plasma (percent of parent remaining) (%)

{"columns": ["compound", "limit operator", "recorded measurement"],
 "data": [
  ["O=C(NCCCCCn1ccc2ccc(F)cc21)Oc1ccccc1", "=", 80],
  ["O=C(NCCCCn1ccc2ccc(F)cc21)Oc1ccccc1", "=", 74],
  ["CNC(=O)Oc1ccc2c(c1)[C@]1(C)CCN(C)[C@@H]1N2C [physostigmine, reference compound]", ">", 95],
  ["O=C(NCCCCCCCn1ccc2ccc(F)cc21)Oc1ccccc1", "=", 34],
  ["O=C(NCCCCCCn1ccc2ccc(F)cc21)Oc1ccccc1", "=", 55],
  ["O=C(OC(C(F)(F)F)C(F)(F)F)N1CCN(Cc2ccc(C(F)(F)F)cc2N2CCCC2)CC1 [ABX-1431 (2), reference compound]", "=", 95],
  ["O=C(NCCCCCCCCn1ccc2ccc(F)cc21)Oc1ccccc1", "=", 65]
]}
